- method-notes: amyloid nucleation score (Sup35N fusion, yeast selection) (log enrichment); library NNK2; higher = more nucleation; inactive = no reads after selection;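 note: zero at mode of non-aggregating sequences after 7 days selection at 30°C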
Cut-off 0.5 on amyloid nucleation score, inclusive. At or above means Met; below means Not met.

These solved cases illustrate the format of a correct answer.
SNLNLFITYLTLSTNDR : Met
CRLCWE : Not met
ICSTVSVIKT : Not met
AADRFVAMKICVLCHLKQSL : Met
IVLLAVI : Met

Request: State whether the measured amyloid nucleation score reaches 0.5, counting equality as reaching it, for MIASIGLDCEHVM
Result: Met

Request: State whether the measured amyloid nucleation score reaches 0.5, counting equality as reaching it, for FYSLQFLTILLVTFMEATYP
Result: Not met

Request: State whether the measured amyloid nucleation score reaches 0.5, counting equality as reaching it, for PMYRILNSTKESSGFALRGP
Result: Not met

Request: State whether the measured amyloid nucleation score reaches 0.5, counting equality as reaching it, for PCGNPLQRYS
Result: Met

Request: State whether the measured amyloid nucleation score reaches 0.5, counting equality as reaching it, for YGHFWDFGVPIASSISYKKG
Result: Not met

Request: State whether the measured amyloid nucleation score reaches 0.5, counting equality as reaching it, for RHSLYVFY
Result: Met

Request: State whether the measured amyloid nucleation score reaches 0.5, counting equality as reaching it, for YARGNFKSLCCPMV
Result: Not met

Request: State whether the measured amyloid nucleation score reaches 0.5, counting equality as reaching it, for FWCCANRSLVISLI
Result: Not met

Request: State whether the measured amyloid nucleation score reaches 0.5, counting equality as reaching it, for ADSCKVMKWDRRPLEDFNWC
Result: Not met

Request: State whether the measured amyloid nucleation score reaches 0.5, counting equality as reaching it, for SWSWSMGGNFRMVWSL
Result: Met

Request: State whether the measured amyloid nucleation score reaches 0.5, counting equality as reaching it, for SYGVLGDLASGTSRTID
Result: Not met

Request: State whether the measured amyloid nucleation score reaches 0.5, counting equality as reaching it, for TYCFLGFQNIPSMLNPMNFG
Result: Met

Request: State whether the measured amyloid nucleation score reaches 0.5, counting equality as reaching it, for GGDSECGYNGVFVGYAVFWC
Result: Not met

Request: State whether the measured amyloid nucleation score reaches 0.5, counting equality as reaching it, for LIYGDASETLC
Result: Not met

Request: State whether the measured amyloid nucleation score reaches 0.5, counting equality as reaching it, for IWQMLVMMKAWKMCPTLVRY
Result: Met

Request: State whether the measured amyloid nucleation score reaches 0.5, counting equality as reaching it, for ASSMILL
Result: Not met

Request: State whether the measured amyloid nucleation score reaches 0.5, counting equality as reaching it, for MLGCCPRVSVVPNTV
Result: Not met

Request: State whether the measured amyloid nucleation score reaches 0.5, counting equality as reaching it, for KRGRDV
Result: Not met

Request: State whether the measured amyloid nucleation score reaches 0.5, counting equality as reaching it, for CRCTSIRGLKCIRW
Result: Met

Request: State whether the measured amyloid nucleation score reaches 0.5, counting equality as reaching it, for HLSRPGDAYTVMFT
Result: Met

Request: State whether the measured amyloid nucleation score reaches 0.5, counting equality as reaching it, for RTYVGRPENCKSWSYPMLMQ
Result: Met

Request: State whether the measured amyloid nucleation score reaches 0.5, counting equality as reaching it, for YYSVGNAGL
Result: Not met

Request: State whether the measured amyloid nucleation score reaches 0.5, counting equality as reaching it, for SITYTNLMNTLQAIRTSFLA
Result: Not met

Request: State whether the measured amyloid nucleation score reaches 0.5, counting equality as reaching it, for VLISVIWLRGRKLSVGWKKD
Result: Met

Request: State whether the measured amyloid nucleation score reaches 0.5, counting equality as reaching it, for RSGNRGPVARYVGYERCMGK
Result: Met

Request: State whether the measured amyloid nucleation score reaches 0.5, counting equality as reaching it, for NPGVDQTHFLGFLI
Result: Not met
